# Test system: BMP2K
# Parameters: species or system human, MV4-11 + K-562 + COLO205 + SK-N-BE2 + OVCAR-8
# APPLIED CONDITIONS: read-out: apparent Kd; compound concentrations:100 nM and 1000 nM (sheet 'Samples'); n = 1
READOUT: potency estimated from few doses (nM)
Output spec: scalar in nM, unitless text.

Exercise: I have this compound here, Cl.Cl.NCC(C(=O)Nc1cc(Br)c(-c2ccnc3[nH]ccc23)s1)c1ccccc1.NCC(C(=O)Nc1cc(Br)c(-c2ccnc3[nH]ccc23)s1)c1ccccc1 (stereo not drawn) [GSK1269851A] , and I need its recorded potency estimated from few doses.
Key: 126

Exercise: I have this compound here, CCn1c(-c2nonc2N)nc2c(C#CC(C)(C)O)nc(O[C@@H](CN)c3ccccc3)cc21.O=C(O)C(F)(F)F [GSK1007102B] , and I need its recorded potency estimated from few doses.
Key: 355

Exercise: I have this compound here, CC(C)Nc1cc(-c2ccc3c(N)n[nH]c3c2)nc(N)n1 [GSK2221681A] , and I need its recorded potency estimated from few doses.
Key: 947
